experimental_target: CREB-binding protein (Homo sapiens, UniProt Q92793)
Sequence (Q92793 whole entry): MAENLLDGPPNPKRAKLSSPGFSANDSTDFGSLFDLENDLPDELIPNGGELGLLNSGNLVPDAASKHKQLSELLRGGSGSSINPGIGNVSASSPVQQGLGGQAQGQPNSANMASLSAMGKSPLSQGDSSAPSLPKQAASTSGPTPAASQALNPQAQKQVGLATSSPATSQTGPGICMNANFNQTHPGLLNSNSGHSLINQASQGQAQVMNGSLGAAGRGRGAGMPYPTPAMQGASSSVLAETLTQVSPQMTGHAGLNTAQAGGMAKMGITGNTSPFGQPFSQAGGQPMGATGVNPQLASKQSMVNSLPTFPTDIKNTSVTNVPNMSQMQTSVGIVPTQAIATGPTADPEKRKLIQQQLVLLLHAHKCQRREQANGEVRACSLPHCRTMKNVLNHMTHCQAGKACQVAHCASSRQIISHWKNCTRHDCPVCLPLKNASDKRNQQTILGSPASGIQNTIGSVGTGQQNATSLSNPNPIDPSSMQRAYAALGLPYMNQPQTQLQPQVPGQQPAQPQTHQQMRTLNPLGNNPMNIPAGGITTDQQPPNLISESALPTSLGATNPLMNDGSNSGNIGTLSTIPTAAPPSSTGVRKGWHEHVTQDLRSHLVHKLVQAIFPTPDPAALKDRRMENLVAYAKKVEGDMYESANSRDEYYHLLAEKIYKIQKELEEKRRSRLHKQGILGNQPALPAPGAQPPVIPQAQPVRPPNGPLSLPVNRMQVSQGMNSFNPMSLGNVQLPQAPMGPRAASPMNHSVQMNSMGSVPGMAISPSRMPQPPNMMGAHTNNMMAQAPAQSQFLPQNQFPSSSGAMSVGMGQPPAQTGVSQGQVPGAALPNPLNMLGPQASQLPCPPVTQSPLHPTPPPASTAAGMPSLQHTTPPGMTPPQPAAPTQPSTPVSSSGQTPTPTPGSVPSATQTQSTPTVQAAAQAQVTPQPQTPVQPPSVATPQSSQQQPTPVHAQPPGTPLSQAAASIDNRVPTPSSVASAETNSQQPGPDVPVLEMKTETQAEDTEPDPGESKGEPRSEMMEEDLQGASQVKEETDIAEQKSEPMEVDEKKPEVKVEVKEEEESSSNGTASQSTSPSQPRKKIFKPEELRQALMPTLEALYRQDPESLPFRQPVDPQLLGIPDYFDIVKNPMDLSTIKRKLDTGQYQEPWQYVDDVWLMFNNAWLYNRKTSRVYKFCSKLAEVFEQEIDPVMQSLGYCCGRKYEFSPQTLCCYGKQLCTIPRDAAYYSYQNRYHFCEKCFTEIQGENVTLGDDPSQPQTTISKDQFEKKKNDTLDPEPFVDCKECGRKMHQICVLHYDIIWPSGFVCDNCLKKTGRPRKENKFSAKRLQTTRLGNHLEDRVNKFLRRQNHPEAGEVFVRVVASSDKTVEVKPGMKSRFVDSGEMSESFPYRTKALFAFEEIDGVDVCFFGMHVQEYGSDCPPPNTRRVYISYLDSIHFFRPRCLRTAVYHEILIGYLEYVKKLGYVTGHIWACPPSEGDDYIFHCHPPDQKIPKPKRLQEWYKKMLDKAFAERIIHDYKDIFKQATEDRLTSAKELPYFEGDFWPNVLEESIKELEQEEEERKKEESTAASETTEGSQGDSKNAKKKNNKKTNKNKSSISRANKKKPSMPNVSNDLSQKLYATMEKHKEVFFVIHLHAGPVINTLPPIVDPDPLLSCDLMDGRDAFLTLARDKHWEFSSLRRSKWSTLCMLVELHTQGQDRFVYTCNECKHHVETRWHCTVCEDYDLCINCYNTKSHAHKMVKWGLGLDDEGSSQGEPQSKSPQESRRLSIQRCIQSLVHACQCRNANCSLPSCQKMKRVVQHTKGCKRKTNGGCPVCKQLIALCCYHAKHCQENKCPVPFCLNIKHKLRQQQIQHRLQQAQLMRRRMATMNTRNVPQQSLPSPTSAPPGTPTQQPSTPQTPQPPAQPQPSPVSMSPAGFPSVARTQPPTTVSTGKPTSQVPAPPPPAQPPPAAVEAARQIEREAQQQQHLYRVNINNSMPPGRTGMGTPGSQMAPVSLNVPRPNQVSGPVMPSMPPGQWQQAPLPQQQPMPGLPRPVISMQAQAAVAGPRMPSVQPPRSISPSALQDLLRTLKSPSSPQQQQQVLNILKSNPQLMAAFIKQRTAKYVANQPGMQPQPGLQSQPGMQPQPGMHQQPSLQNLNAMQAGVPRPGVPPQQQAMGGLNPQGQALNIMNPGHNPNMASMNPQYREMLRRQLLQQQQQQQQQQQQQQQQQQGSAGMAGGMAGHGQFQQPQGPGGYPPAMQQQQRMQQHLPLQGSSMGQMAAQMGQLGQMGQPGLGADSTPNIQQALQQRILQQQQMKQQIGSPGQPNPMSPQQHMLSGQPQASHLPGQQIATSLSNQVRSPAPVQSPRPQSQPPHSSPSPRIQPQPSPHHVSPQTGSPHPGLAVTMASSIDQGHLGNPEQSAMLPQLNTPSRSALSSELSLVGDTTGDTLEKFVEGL
measured_metric: IC50

Give the value of IC50 reported for the following: `Cc1ccc(N2C(=O)/C(=C\C=C\c3ccco3)C(=O)NC2=S)cc1Cl` 3.2 µM

* * *

experimental_target: Histone acetyltransferase p300 (Homo sapiens)
Sequence (Q09472 whole entry): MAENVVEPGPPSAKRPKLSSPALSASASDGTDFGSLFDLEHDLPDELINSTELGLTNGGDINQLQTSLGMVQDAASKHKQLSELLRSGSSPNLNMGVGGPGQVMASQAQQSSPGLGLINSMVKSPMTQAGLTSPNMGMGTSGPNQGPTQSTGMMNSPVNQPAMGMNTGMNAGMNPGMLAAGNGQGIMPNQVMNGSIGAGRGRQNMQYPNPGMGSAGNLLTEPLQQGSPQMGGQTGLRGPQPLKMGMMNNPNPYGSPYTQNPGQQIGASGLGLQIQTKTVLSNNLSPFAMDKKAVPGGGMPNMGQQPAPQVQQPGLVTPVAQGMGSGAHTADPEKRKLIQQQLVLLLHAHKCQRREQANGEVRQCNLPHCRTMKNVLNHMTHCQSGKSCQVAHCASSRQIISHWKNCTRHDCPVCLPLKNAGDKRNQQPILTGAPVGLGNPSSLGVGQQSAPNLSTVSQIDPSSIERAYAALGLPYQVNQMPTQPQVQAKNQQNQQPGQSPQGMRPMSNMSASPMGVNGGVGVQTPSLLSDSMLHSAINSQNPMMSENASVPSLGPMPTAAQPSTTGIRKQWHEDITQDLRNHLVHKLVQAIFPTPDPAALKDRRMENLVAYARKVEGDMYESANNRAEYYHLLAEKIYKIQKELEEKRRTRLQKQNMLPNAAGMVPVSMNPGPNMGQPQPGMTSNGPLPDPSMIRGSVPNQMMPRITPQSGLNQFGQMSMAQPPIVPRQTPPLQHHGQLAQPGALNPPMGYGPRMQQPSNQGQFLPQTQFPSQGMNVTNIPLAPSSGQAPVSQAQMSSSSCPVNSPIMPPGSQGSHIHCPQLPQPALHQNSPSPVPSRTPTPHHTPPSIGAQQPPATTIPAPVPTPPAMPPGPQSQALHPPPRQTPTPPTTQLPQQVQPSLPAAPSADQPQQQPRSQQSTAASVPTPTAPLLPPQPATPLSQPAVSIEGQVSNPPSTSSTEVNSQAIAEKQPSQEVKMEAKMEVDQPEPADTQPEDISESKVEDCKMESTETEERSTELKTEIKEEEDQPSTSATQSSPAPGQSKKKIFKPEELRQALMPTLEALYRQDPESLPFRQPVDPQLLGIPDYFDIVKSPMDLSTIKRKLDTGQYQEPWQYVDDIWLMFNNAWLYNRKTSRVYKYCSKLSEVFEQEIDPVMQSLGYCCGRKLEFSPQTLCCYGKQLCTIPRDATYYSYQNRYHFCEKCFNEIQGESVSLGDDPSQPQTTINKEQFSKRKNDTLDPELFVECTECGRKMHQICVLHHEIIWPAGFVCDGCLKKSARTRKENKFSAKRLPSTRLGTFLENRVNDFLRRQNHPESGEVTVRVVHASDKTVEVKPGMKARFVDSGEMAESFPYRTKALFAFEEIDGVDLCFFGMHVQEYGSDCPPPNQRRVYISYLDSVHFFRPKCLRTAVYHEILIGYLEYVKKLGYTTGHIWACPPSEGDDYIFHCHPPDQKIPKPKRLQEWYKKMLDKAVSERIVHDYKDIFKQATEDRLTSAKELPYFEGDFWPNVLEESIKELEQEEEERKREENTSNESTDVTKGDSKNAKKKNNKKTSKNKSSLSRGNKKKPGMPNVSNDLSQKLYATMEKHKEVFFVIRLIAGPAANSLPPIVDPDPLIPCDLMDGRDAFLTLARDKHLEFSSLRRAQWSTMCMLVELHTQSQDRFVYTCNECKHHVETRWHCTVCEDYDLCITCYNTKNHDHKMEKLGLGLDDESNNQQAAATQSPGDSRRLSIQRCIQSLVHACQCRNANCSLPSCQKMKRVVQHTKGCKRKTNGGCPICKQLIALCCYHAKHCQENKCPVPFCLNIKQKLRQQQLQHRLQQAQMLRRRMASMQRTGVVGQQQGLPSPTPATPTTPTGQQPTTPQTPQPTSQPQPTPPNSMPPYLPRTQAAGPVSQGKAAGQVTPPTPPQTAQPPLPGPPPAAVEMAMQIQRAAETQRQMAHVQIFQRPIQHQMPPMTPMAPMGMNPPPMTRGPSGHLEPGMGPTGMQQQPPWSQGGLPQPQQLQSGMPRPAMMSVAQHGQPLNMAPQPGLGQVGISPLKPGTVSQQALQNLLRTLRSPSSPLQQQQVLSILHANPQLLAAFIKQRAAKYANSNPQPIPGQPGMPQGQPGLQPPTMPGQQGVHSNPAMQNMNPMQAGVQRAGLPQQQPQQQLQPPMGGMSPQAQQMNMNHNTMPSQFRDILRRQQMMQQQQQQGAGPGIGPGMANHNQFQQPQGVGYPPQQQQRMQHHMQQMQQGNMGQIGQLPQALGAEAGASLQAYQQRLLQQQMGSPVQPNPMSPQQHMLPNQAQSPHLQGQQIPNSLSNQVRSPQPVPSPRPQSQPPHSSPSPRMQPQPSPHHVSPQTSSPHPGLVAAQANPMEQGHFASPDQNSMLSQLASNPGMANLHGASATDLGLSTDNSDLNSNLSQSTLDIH
Provide the recorded pIC50 for the entries that follow.
Answers are plain numbers, as −log10 of the molar value.

Solved entries (count: 2):
> print(dat)
                            smiles.notation  measured.metric  observed.measurement
1  Cc1ccc(N2C(=O)/C(=C\C=C\c3ccco3)C(=O)NC2=S)cc1Cl            pIC50                  6.15
2   Cc1cc(/C=C2\C(=O)NC(=S)N(C)C2=O)c(C)n1C            pIC50                  4.85

API: the following record is the query input.
Give the value of pIC50 reported for the following: `CN1C(=O)/C(=C/c2ccccc2)C(=O)NC1=S` 4.35

* * *

System: MOLT-3
measurement_description: Antiproliferative activity against human MOLT3 cells after 72 hrs by CellTiter-Glo assay
protocol_conditions: MOLT-3, 72 h
measured_metric: pIC50
One number for each entry, as −log10 of the molar value.

Give the value of pIC50 reported for the following: `Cc1ccc(N2C(=O)/C(=C\C=C\c3ccco3)C(=O)NC2=S)cc1Cl` 5.57

* * *

Measurement record for Histone acetyltransferase p300 (Homo sapiens, UniProt Q09472); quantity recorded: IC50.

> print(dat)
                            smiles.notation  observed.measurement
1  CN1C(=O)/C(=C/c2c[nH]c3ccccc23)C(=O)NC1=S               > 50 µM

Here are 2 compounds. What values of IC50 were reported for them?
1. CN1C(=O)/C(=C/c2ccc(N3CCOCC3)o2)C(=O)NC1=S
2. CN1C(=O)/C(=C/c2ccncc2)C(=O)NC1=S

["> 50 µM", "> 50 µM"]
